Hi there, I'd appreciate the recorded inhibition ratio for every entry that follows.
- test.target: human B7-H3 protein (human) (UniProt Q5ZPR3)
- assay.overview: Octet (BLI) epitope binning on captured human B7-H3; competitor CA84D
Answers are plain numbers, in %.

Past entries and their recorded results:
126C10B10 (antibody, V domains shown) VH: GVQLQQSGAELVKPGASVKLSCTGSGFNIKDPYIHWVKQRPEQGLEWIGRIDPANGNTKYGPRFQGRATMTADTSSNTANLQLSSLTSEDTAVYYCTTWNYYLSRGFDYWGQGTTLTVSS VL: QIVLTQSPAIMSASPGEKVTMTCSARSSVTYMHWYQQKSGTSPKRWIYDTSKLASGVPARFSGSGSGTSYSLTISSMEAEDAATYYCQQWTSNPLTFGAGTKLELK
-9.58
62H9H5 (antibody, V domains shown) VH: QVQLQQSGAELAKPGASVKMSCKASGYTFTNYWIHWVKQRPGQGLEWIGYISPSTGYTEYNQKFKGKATLTAVKSSSTAFMQLSSLTSEDSAVYFCARGTGYWGQGTTLTVSS VL: DIQMTQSPASLSASVGESVTITCRASENIYSFFAWYQQKEGKSPQLLVYNAKTLEEGVPSRFSGSGSGTQFSLKINSLQPEDFGSYYCQHNYVSPFTFGSGTKLEIK
-6.07

Okay, now this binder:
Indicate its recorded inhibition ratio; the binder in question is AHP05564 (antibody, V domains shown) VH: EVQLVETGGGVVQPGRSLRLSCAASGFTFSSSGMHWVRQAPGKGLEWVAVISYDVTNKYYVDSVKGRFTISRDNSENTLYLQMNSLRAEDTGVYYCVRDGGPRWLGWYFDLWGRGTLVTVSS VL: NIQMTQSPSSQSASVGDRVTITCRANQAIANSLAWYQQKPGKAPKLLLFGTSLLHSGVPSRFSGSGSGTEYTLTISSLQPDDFGTYYCQQYFSFPRTFGQGTQVDVY
80.1
